METHOD: Cytotoxicity, CellTiter Glo
Format: cell-based
CONDITION_PARAMETERS: human, SK-N-MC cells, 7-day proliferation, neural crest derived lines
MEASUREMENT_KIND: IC50 at 7 day (µM)
Answers are plain numbers, in µM.

Request: Sample `COc1cc2c(cc1OCCCN1CCCC1)N=C(N)C21CCC1` — what was its IC50 at 7 day?
Result: 9.7

Others:
Request: Could you tell me which IC50 at 7 day is on file for COc1cc2c(NC3CCN(C(C)C)CC3)nc(C3CCCCC3)nc2cc1OCCCN1CCCC1 [UNC0638, reference compound] ?
Result: 0.2

====

METHOD: Cytotoxicity, CellTiter Glo
Format: cell-based
CONDITION_PARAMETERS: human, CAPO-ES1 cells, 7-day proliferation, neural crest derived lines
MEASUREMENT_KIND: IC50 at 7 day

Request: Please look up its IC50 at 7 day: `COc1cc2c(cc1OCCCN1CCCC1)N=C(N)C21CCC1`
Result: > 10000 nM

Now take the following compound into account.
Request: I'd like to know its IC50 at 7 day. The compound in question is COc1cc2c(NC3CCN(C(C)C)CC3)nc(C3CCCCC3)nc2cc1OCCCN1CCCC1 [UNC0638, reference compound]
Result: 1200 nM

====

METHOD: Cytotoxicity, CellTiter Glo
Assay type: cell-based
CONDITION_PARAMETERS: human, ZR7350 cells, 7-day proliferation, neural crest derived lines
MEASUREMENT_KIND: IC50 at 7 day (µM)
One number for each entry, in µM.

Request: Tell me the measured IC50 at 7 day of COc1cc2c(NC3CCN(C(C)C)CC3)nc(C3CCCCC3)nc2cc1OCCCN1CCCC1 [UNC0638, reference compound] , please.
Result: 1.2

====

METHOD: Cytotoxicity, CellTiter Glo
Format: cell-based
CONDITION_PARAMETERS: A-201 cells, 12-day proliferation, neural crest derived lines
MEASUREMENT_KIND: IC50 at 12 day (nM)
One number for each entry, in nM.

Request: Any idea what its IC50 at 12 day is? The compound is COc1cc2c(NC3CCN(C(C)C)CC3)nc(C3CCCCC3)nc2cc1OCCCN1CCCC1 [UNC0638, reference compound]
Result: 600

====

METHOD: Cytotoxicity, CellTiter Glo
Format: cell-based
CONDITION_PARAMETERS: human, MV4;11 cells, 5-day proliferation
MEASUREMENT_KIND: IC50 at 5 day (µM)
Answers are plain numbers, in µM.

Request: Which IC50 at 5 day value belongs to COc1cc2c(NC3CCN(C(C)C)CC3)nc(C3CCCCC3)nc2cc1OCCCN1CCCC1 [UNC0638, reference compound] ?
Result: 1.7

====

Exercise: for every item that follows, state its recorded IC50 at 5 day.
METHOD: Cytotoxicity, CellTiter Glo
Format: cell-based
CONDITION_PARAMETERS: human, RS4;11 cells, 5-day proliferation

Request: Report IC50 at 5 day for `COc1cc2c(cc1OCCCN1CCCC1)N=C(N)C21CCC1` please.
Result: > 10 µM

Field: next molecule
Request: Return reported IC50 at 5 day; argument: COc1cc2c(NC3CCN(C(C)C)CC3)nc(C3CCCCC3)nc2cc1OCCCN1CCCC1 [UNC0638, reference compound]
Result: 3.1 µM

====

METHOD: Cytotoxicity, CellTiter Glo
Type: cell-based
CONDITION_PARAMETERS: human, THP-1 cells, 5-day proliferation
MEASUREMENT_KIND: IC50 at 5 day (µM)
Give bare numbers, in µM.

Request: # input molecule: COc1cc2c(NC3CCN(C(C)C)CC3)nc(C3CCCCC3)nc2cc1OCCCN1CCCC1 [UNC0638, reference compound] ; wanted: its IC50 at 5 day
Result: 4.9

====

METHOD: Cytotoxicity, CellTiter Glo
Assay type: cell-based
CONDITION_PARAMETERS: human, RPMI8226 cells, 5-day proliferation
MEASUREMENT_KIND: IC50 at 5 day (µM)
Give bare numbers, in µM.

Request: Entry COc1cc2c(NC3CCN(C(C)C)CC3)nc(C3CCCCC3)nc2cc1OCCCN1CCCC1 [UNC0638, reference compound] has what IC50 at 5 day?
Result: 5.1

====

METHOD: Cytotoxicity, CellTiter Glo
Format: cell-based
CONDITION_PARAMETERS: human, MHH-65-1 cells, 7-day proliferation, neural crest derived lines
MEASUREMENT_KIND: IC50 at 7 day (nM)
One number for each entry, in nM.

Request: Given the entry COc1cc2c(NC3CCN(C(C)C)CC3)nc(C3CCCCC3)nc2cc1OCCCN1CCCC1 [UNC0638, reference compound] , report its measured IC50 at 7 day.
Result: 1900

====

METHOD: Cytotoxicity, CellTiter Glo
Format: cell-based
CONDITION_PARAMETERS: human, K562 cells, 5-day proliferation
MEASUREMENT_KIND: IC50 at 5 day (µM)
One number for each entry, in µM.

Request: Query: IC50 at 5 day; subject: COc1cc2c(NC3CCN(C(C)C)CC3)nc(C3CCCCC3)nc2cc1OCCCN1CCCC1 [UNC0638, reference compound]
Result: 5.3

====

ASSAY_TARGET: G9a (Homo sapiens)
Sequence (Q96KQ7 1-1210): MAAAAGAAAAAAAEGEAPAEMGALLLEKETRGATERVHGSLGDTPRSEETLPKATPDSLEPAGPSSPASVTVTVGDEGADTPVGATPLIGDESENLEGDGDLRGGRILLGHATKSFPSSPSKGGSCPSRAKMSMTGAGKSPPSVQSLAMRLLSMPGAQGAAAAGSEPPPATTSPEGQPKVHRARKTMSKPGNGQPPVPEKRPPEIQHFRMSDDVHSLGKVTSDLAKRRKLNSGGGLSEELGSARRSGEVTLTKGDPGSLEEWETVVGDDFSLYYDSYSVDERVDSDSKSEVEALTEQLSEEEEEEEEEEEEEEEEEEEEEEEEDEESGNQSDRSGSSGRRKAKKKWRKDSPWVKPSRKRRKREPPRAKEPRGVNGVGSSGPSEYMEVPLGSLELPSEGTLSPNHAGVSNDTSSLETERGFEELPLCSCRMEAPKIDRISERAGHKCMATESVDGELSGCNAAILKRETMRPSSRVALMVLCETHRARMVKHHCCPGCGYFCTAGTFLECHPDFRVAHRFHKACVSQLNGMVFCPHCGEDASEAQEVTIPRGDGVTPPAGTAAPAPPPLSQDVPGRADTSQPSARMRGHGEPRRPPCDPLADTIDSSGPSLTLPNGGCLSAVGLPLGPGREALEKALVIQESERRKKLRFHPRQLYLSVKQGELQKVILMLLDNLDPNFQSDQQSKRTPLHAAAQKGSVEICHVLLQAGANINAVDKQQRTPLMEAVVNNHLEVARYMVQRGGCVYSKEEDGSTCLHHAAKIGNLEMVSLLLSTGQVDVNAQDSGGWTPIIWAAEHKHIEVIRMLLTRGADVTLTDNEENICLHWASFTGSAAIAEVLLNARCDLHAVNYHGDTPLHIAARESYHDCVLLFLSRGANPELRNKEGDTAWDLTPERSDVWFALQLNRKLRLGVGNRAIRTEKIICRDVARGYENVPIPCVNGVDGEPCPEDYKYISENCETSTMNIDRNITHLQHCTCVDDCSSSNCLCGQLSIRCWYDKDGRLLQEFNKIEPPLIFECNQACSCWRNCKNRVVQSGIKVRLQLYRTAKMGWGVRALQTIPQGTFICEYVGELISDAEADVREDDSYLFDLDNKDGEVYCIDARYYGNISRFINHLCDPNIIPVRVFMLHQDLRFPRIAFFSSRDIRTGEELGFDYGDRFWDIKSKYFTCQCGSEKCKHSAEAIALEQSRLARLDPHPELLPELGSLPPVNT
Assignment: determine reported pIC50 for the given molecules.
Numbers only, as −log10 of the molar value.

Consider the worked cases shown below.
Request: Data request, read-out pIC50, for COc1cc2c(cc1OC)C1(CCCC1)C(N)=N2 [Example 4]
Result: 5.61

Request: Recorded pIC50 for COc1cc2c(cc1OCCCN1CC[C@@H](F)C1)N=C(N)C21CCC1 [Example 15] , please?
Result: 7.74

Request: What value of pIC50 has been reported for the following molecule? COc1cc2c(cc1OCCCN1CC(F)C1)N=C(N)C21CCC1 [Example 13]
Result: 8.32

Hi! Can you tell me pIC50 for each of these molecules?
1. COc1cc2c(cc1OC)N=C(N)C2 [Example 6, 5,6-dimethoxy-3H-indol-2-amine]
2. COc1cc2c(cc1OCCC1CCCN1C)N=C(N)C21CCC1 (centres unmarked) [Example 10]

Result:
1: 4.84; 2: 6.82

====

METHOD: Cytotoxicity, CellTiter Glo
Assay type: cell-based
CONDITION_PARAMETERS: human, L-363 cells, 5-day proliferation
MEASUREMENT_KIND: IC50 at 5 day (µM)
Answers are plain numbers, in µM.

Request: Value lookup for IC50 at 5 day; key = COc1cc2c(NC3CCN(C(C)C)CC3)nc(C3CCCCC3)nc2cc1OCCCN1CCCC1 [UNC0638, reference compound]
Result: 3.9
